Listing of recorded log10(IC50) by entry.
biological target: Recombinant human FAP (Homo sapiens); construct: purchased R&D systems; experiment: FAP FRET assay, FGF21-sequence FRET peptide substrate; assay type: biochemical; settings: FRET peptide with human FGF21 sequence, 6 μM, 37° C.
Sequence (Q12884 whole entry): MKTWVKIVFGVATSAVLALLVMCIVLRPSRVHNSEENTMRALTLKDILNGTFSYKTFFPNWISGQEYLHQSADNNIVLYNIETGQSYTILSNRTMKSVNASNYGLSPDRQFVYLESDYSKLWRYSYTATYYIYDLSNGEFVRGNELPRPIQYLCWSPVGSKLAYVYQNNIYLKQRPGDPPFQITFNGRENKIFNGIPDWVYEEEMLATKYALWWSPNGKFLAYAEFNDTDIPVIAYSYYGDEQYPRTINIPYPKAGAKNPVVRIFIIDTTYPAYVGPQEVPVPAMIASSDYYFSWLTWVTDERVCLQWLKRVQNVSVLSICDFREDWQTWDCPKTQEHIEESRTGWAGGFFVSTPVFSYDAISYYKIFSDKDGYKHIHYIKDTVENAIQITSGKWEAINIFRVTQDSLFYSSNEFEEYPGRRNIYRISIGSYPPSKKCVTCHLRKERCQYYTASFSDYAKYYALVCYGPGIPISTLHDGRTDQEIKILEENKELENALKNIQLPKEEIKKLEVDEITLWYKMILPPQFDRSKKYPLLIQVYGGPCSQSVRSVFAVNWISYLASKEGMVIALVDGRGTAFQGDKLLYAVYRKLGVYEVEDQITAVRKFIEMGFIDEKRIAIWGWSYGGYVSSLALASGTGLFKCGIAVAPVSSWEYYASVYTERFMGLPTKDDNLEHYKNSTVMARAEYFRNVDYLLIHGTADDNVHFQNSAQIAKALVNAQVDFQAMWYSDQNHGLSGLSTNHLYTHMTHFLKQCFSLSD
quantity_name: log10(IC50) (log10 of the value in nM)

| compound | log10(IC50) |
| --- | --- |
| N#C[C@@H]1CCCN1C(=O)CN1CCC(Nc2ccc(C(=O)Nc3ccccc3)c3ncccc23)CC1 [Example 396] | 0.49 |
| Cc1cc(NC2CCN(CC(=O)N3C[C@@H](F)C[C@H]3C#N)CC2)cc2cccnc12 [Example 374] | 1.50 |
| N#C[C@@H]1C[C@H](F)CN1C(=O)CN1CC[C@@H](Nc2cc(C(F)(F)F)cc3ncccc23)C1 [Example 182] | 0.52 |
| N#C[C@@H]1C[C@H](F)CN1C(=O)CN1CC[C@@H](Nc2ccc(C(F)(F)F)c3ncccc23)C1 [Example 183] | 0.34 |
| N#C[C@@H]1CCCN1C(=O)CN1CC[C@H](Nc2ccc(C(F)(F)F)c3ncccc23)C1 [Example 245] | 0.08 |
| N#C[C@@H]1CCCN1C(=O)CN1CC[C@H](Nc2ccc(C(=O)Nc3ccccn3)c3ncccc23)C1 [Example 293] | -0.10 |
| N#C[C@@H]1C[C@H](F)CN1C(=O)CN1CC[C@H](Nc2cc(F)c3ncccc3c2)C1 [Example 278] | 0.54 |
| N#C[C@@H]1C[C@H](F)CN1C(=O)CN1CCC(Nc2ccnc3c(F)cccc23)CC1 [Example 345] | 1.29 |
| COc1ccc2cc(NC3CCN(CC(=O)N4C[C@@H](F)C[C@H]4C#N)CC3)cnc2c1 [Example 366] | 1.56 |
| N#C[C@@H]1C[C@H](F)CN1C(=O)CN1CCC(Nc2ccnc(Br)c2)CC1 [Example 383] | 1.59 |
| COc1cnc2cccc(N[C@H]3CCN(CC(=O)N4CCC[C@H]4C#N)C3)c2c1 [Example 233] | -0.15 |
| N#C[C@@H]1C[C@H](F)CN1C(=O)CN1CCC(Nc2cccc3ncc(F)cc23)CC1 [Example 349] | 0.60 |
| CNC(=O)c1ccc(NC2CCN(CC(=O)N3CCC[C@H]3C#N)CC2)c2cccnc12 [Example 395] | 1.27 |
| COc1ccc(N[C@@H]2CCN(CC(=O)N3C[C@@H](F)C[C@H]3C#N)C2)c2cccnc12 [Example 178] | 1.00 |
| CNC(=O)c1ccc(N[C@H]2CCN(CC(=O)N3CCC[C@H]3C#N)C2)c2cccnc12 [Example 286] | 0.97 |
| CN(c1cc(F)cc2ncccc12)[C@H]1CCN(CC(=O)N2C[C@@H](F)C[C@H]2C#N)C1 [Example 157] | 1.31 |

---

// reported IC50 per item
biological target: recombinant human PREP (Homo sapiens, UniProt P48147); construct: purchased R&D System; assay: PREP inhibition, fluorogenic substrate Z-Gly-Pro-AMC; type: biochemical; settings: Inhibitory Activity (IC50, nM) PREP, 25° C., Z-Gly-Pro-AMC substrate
Sequence (P48147 whole entry): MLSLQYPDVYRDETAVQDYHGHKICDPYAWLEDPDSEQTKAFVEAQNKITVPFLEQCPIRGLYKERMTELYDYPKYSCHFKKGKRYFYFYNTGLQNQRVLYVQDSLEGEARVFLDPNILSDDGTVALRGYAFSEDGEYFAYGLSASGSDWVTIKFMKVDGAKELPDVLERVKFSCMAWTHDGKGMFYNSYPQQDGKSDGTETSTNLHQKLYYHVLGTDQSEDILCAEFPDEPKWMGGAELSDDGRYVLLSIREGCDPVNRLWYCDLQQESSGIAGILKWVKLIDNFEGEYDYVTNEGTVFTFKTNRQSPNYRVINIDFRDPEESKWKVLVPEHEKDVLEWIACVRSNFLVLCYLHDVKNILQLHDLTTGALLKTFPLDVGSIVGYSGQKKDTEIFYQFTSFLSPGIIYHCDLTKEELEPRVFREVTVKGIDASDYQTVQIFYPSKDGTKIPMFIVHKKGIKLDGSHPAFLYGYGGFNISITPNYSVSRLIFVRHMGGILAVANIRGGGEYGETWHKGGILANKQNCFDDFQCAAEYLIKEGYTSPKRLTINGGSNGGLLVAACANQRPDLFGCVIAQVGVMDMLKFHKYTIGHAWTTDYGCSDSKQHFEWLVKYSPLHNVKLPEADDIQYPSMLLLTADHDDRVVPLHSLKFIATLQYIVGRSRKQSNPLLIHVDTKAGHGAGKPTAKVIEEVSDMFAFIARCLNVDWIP

| compound | tgt | scale_unit | IC50 |
| --- | --- | --- | --- |
| COc1ccc2nccc(O[C@H]3CCN(CC(=O)N4CCC[C@H]4C#N)C3)c2c1 [Example 84] | recombinant human PREP (Homo sapiens, UniProt P48147) | nM | 5400 |
| N#C[C@@H]1CCCN1C(=O)CN1CC[C@H](NC(=O)c2coc3ccccc23)C1 [Example 37] | recombinant human PREP (Homo sapiens, UniProt P48147) | nM | 8260 |
| N#C[C@@H]1C[C@H](F)CN1C(=O)CN1CCC(Nc2cccc3ncccc23)CC1 [Example 113] | recombinant human PREP (Homo sapiens, UniProt P48147) | nM | 2930 |
| COc1ccc2c(OC3CCN(CC(=O)N4C[C@@H](F)C[C@H]4C#N)CC3)ccnc2c1 [Example 129] | recombinant human PREP (Homo sapiens, UniProt P48147) | nM | 161 |
| N#C[C@@H]1CCCN1C(=O)CN1CC[C@H](Oc2cccc3cccnc23)C1 [Example 64] | recombinant human PREP (Homo sapiens, UniProt P48147) | nM | 84000 |
